The measured values listed here are drawn from patent US20250170248A1.

Measured Dmax, listed per entry.
- Assayed system: SMARCA4 (Homo sapiens)
- Construct: SMARCA2/SMARCA4 protein degradation selectivity in MV4-11 cells; endogenous in cells; host or cells: MV4-11
- Sequence (P51532 whole entry): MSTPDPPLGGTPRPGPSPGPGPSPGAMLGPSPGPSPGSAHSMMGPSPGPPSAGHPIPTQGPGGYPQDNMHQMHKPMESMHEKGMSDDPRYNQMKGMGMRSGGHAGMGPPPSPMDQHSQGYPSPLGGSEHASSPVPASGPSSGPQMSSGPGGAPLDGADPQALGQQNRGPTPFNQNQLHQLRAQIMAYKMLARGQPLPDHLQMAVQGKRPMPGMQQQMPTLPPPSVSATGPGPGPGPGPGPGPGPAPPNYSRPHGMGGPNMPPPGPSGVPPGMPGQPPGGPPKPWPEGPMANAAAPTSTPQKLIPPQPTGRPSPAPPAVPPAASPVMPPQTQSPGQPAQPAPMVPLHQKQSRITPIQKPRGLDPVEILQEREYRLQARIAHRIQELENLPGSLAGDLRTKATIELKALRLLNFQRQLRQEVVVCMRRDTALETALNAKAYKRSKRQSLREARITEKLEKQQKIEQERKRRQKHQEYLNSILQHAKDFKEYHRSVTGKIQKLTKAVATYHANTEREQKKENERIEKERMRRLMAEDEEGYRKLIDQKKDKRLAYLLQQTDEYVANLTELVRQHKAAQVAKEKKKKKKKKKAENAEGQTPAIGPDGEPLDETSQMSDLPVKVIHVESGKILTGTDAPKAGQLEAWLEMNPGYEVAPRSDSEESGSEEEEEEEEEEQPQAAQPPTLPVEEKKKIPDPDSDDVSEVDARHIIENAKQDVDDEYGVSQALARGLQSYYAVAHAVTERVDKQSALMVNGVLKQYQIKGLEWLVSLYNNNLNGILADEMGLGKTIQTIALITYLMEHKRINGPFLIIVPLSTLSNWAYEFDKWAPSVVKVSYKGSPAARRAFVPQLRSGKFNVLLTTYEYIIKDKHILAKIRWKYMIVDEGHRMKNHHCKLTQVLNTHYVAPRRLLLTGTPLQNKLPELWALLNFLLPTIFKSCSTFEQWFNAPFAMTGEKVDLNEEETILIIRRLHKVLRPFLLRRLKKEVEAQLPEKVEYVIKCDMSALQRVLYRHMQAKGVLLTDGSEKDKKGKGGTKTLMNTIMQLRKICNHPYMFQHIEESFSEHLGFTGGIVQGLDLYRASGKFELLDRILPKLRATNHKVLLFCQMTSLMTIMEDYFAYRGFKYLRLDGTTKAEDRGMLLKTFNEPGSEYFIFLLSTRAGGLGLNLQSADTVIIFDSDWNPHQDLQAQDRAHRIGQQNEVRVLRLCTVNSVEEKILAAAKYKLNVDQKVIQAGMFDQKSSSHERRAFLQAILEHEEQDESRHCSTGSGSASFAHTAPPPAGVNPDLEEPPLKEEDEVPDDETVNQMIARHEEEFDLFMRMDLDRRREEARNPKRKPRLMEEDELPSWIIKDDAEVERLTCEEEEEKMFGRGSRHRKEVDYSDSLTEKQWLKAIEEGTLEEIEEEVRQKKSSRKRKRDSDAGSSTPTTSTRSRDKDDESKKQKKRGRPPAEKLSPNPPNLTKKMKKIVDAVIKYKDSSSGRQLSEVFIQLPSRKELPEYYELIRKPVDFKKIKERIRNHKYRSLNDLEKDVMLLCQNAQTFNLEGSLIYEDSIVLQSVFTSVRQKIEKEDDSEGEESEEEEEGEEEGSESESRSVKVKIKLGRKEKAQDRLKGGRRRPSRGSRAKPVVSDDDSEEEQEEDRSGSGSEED
- Test protocol: SMARCA4 Western blot degradation in MV4-11 cells
- Type: cell-based
- Particulars: MV4-11, MV4-11 cells, 24 h; read-out: SMARCA4 MSD MV411 degradation 24 h: average Dmax %

The cases that follow already have their Dmax on record.
Cc1ncsc1-c1ccc(CNC(=O)[C@@H]2C[C@@H](O)CN2C(=O)C(c2cc(N3CCC(CCN4CCC(c5cnc(N6CCc7[nH]c8nnc(-c9ccccc9O)cc8c7[C@@H]6C)nc5)CC4)CC3)no2)C(C)C)cc1 (single isomer, unassigned) [I-8] = 70 to 90%
C#Cc1ccc(CNC(=O)[C@@H]2C[C@@H](O)CN2C(=O)[C@H](NC(=O)[C@H]2CCC3(CC2)C[C@H](N2CCN(c4cnc(N5CCN6c7cc(-c8ccccc8O)nnc7NC[C@H]6C5)nc4)CC2)C3)C(C)(C)CCO)c(Cl)c1 (single isomer, unassigned) [I-306] = < 50%
Cc1ncsc1-c1ccc(CNC(=O)[C@@H]2C[C@@H](O)CN2C(=O)[C@@H](NC(=O)[C@H]2CC3(C2)C[C@H](N2CCN(c4cnc(N5CCc6[nH]c7nnc(-c8ccccc8O)cc7c6[C@H]5C)nc4)CC2)C3)C(C)(C)C)cc1 (single isomer, unassigned) [I-76] = 50 to 70%

Now, please, on to the next molecule.
Record Cc1ncsc1-c1ccc(CNC(=O)[C@@H]2C[C@@H](O)CN2C(=O)C(c2cc(OCCCCN3CCC(c4cnc(N5CCN6c7cc(-c8ccccc8O)nnc7NC[C@H]6C5)nc4)CC3)no2)C(C)C)cc1 (stereo partly shown) [I-50] / SMARCA4 (Homo sapiens), Dmax recorded as > 90%

* * *

- Assayed system: SMARCA4 (Homo sapiens)
- Construct: SMARCA2/SMARCA4 protein degradation selectivity in MV4-11 cells; endogenous in cells; host or cells: MV4-11
- Test protocol: SMARCA4 Western blot degradation in MV4-11 cells
- Assay type: cell-based
- Particulars: MV4-11, MV4-11 cells, 24 h; read-out: SMARCA4 MSD MV411 degradation 24 h: average Dmax %
Measured Dmax, listed per entry.

C#Cc1cc(O)c(CNC(=O)[C@@H]2C[C@@H](O)CN2C(=O)[C@@H](NC(=O)N2CC3(CC(N4CCC(c5cnc(N6CCc7[nH]c8nnc(-c9ccccc9O)cc8c7[C@H]6C)nc5)CC4)C3)C2)C(C)(C)C)c(Cl)c1 [I-281] = < 50%
C#Cc1ccc(CNC(=O)[C@@H]2C[C@@H](O)CN2C(=O)[C@@H](N(CCOC)C(=O)N2CC3(CC(N4CCC(c5cnc(N6CCc7[nH]c8nnc(-c9ccccc9O)cc8c7[C@H]6C)nc5)CC4)C3)C2)C(C)(C)C)cc1 [I-140] = < 50%

Now, please, on to the next molecule.
Data point: C#Cc1ccc(CNC(=O)[C@@H]2C[C@@H](O)CN2C(=O)[C@@H](NC(=O)N2CCC(N3CC4(CC(N5CCC(N6CCc7[nH]c8nnc(-c9ccccc9O)cc8c7[C@H]6C)CC5)C4)C3)CC2)C(C)(C)C)cc1 [I-206] ; Dmax = < 50%
